Give IC50 chromogenic for every item shown.
target: human PAI-1, active, wild-type, non-glycosylated (E. coli-derived) (human, UniProt P05121 24-402); test: cell-based or functional assay
Sequence (P05121 24-402): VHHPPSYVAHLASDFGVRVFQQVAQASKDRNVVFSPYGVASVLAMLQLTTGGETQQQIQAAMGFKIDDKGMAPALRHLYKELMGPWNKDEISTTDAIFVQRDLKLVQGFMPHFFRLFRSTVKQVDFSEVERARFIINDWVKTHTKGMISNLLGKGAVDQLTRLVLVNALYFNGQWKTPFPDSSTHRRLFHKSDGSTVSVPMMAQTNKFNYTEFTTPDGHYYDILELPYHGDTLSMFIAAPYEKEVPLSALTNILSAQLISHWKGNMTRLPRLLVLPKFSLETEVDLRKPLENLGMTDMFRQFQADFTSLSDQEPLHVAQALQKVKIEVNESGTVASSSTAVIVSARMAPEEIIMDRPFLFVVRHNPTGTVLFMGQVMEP
Answers are plain numbers, in nM.

BINDER	UNIT_OF_MEASURE	ASSAY_RESULT
Antibody 08, scFv (scFv, V domains shown) VH: QVQLVQSGAEVKKPGSSVKVSCKASGGTFSSYAISWVRQAPGQGLEWMGGIIPTFGTANYAQKFQGRVTITADESTSTAYMELSSLRSEDTAVYYCARERRQWLEGHFDYWGRGTLVTVSS VL: DIQMTQSPSTLSASVGDRVTITCRASEGIYHNLAWYQQKPGKAPKLLIYKASSLASGVPSRFSGSRSGTEFTLTISSLQPDDFATYYCQQYSNYPLTFGGGTKVEIK	nM	3.2

Let us move to another entry and its IC50 chromogenic.
Input: Reported IC50 chromogenic, binder Antibody 04, scFv (scFv, V domains shown) VH: QVRLQQSGAEVKKPGSSVKVSCKASGGTFSSYAISWVRQAPGQGLEWMGGIIPTFGTANYAQKFRGRVTITANESTSTAYMELSGLRSEDTAVYYCAREKRQWLEGRFDYWGRGTLVTVSS VL: DIQMTQSPSFLSASIGDRITITCRASEGIYHSLAWYQQKPGKAPKLLIHRATSLASGTPSRFGGSGSGTDFALTISSLQPDDFATYYCQQYSNYPLTFGGGTKLEIK : ____
Output: 6.6
